EXPERIMENTAL_DETAILS: H1N1 influenza NS1A inhibitors, functional cell based assay (AID 504329)
CONDITION_NOTES: percent inhibition, at 12.5 µM, hits give high values
Out of some 340,000 compounds screened, about 1,000 (0.29%) were called active. The list is a sample of the results. Entries with a potency or affinity are not part of this list.
PARAMETER: inhibition (%)
Report the figure in % without appending any unit label.

- CC(=O)C1=C(C)N(Cc2ccccc2)C(=O)N[C@H]1c1cccc(F)c1: -6.27

// field: inhibition; key: `CNC(=O)c1ccc(Nc2nnc(C)c3ccccc23)cc1` ; value = -2.75

Entry under test: `Cc1ccc(S(=O)(=O)N/N=C(\c2ccccc2)c2cccnc2)cc1` . Its inhibition was -2.16

`COc1ccccc1N1CCN(S(=O)(=O)c2c(C(=O)N3CCOCC3)c(C)n(C)c2C)CC1` yielded inhibition of 6.32

Per the records, this compound ( `O=C(NNC(=O)c1cc(-c2cccc(Br)c2)nc2ccccc12)c1csc(N2CCOCC2)n1` ) has inhibition equal to -7.9
